- Assay Notes: basal S. cerevisiae growth modulation, no modifier, primary screen, OD600, strain BY4716, 24 h, basal condition (AID 1173)
- Condition Details: OD600, 24 h, higher = more signal, called active from +8 up or from −8 down
Respond with Criterion met for z-score values of -0.1 and above, Criterion not met for values below.

q: # bool: z-score of C=CCOC(=O)[C@H]1[C@@H]2C(=O)O[C@@H](c3ccccc3)[C@@H](c3ccccc3)N2[C@@H](c2ccc(OCCOC(=O)[C@H]3C[C@H]4C(=O)N5CCC[C@H]5C(=O)N4[C@H]3c3cccc(OCCO)c3)cc2)[C@]12C(=O)Nc1ccccc12 >= -0.1
a: Criterion met

q: Subsequent entry: C#CCOc1ccc(C[C@H]2C(=O)O[C@H](Cc3ccccc3)[C@H](/C=C/C3CC3)N2CC#C)cc1
a: Criterion not met

q: Subsequent entry: COC(=O)c1c(CC[C@@H](CO)NC(=O)Nc2ccc(OC)cc2)oc(C(=O)Cc2ccccc2)c1C(=O)OC
a: Criterion not met

Cited source: PubChem BioAssay
